test: Tissue concentrations of Formula I and its metabolites in Göttingen pigs after a single oral or intravenous dose (LC-MS/MS); format: in vivo; conditions: both sexes, Göttingen, pig (minipig); spleen; single oral dose of Formula I 125 mg/kg; 24 hpd; read-out: Tissue concentration, spleen
Each entry below carries its reported concentration at 24 h.
Please reply with the bare figure in ng/g and do not write the unit itself.

C[C@H](NP(=O)(O)OC[C@H]1O[C@@H](n2ccc(=O)[nH]c2=S)C(C)(O)C1O)C(=O)O (stereo in doubt) [Formula II]: 2.27

What does the record list as concentration at 24 h for C[C@@]1(O)[C@H](O)[C@@H](CO)O[C@H]1n1ccc(=O)[nH]c1=S [Formula VI] ? 292

---

assay: Tissue concentrations of Formula I and its metabolites in Göttingen pigs after a single oral or intravenous dose (LC-MS/MS); type: in vivo; settings: both sexes, Göttingen, pig (minipig), in vivo, 125 mg/kg, spleen; single oral dose of Formula I 125 mg/kg; 3 hpd; read-out: Tissue concentration, spleen
measured.attribute: concentration at 3 h (ng/g)
Please reply with the bare figure in ng/g and do not write the unit itself.

What does the record list as concentration at 3 h for CC(C)OC(=O)[C@H](C)N[P@](=O)(OC[C@H]1O[C@@H](n2ccc(=O)[nH]c2=S)C(C)(O)C1O)Oc1ccccc1 (stereo partly shown) ? 88.4

---

Each entry below carries its reported concentration at 2 h.
assay: Tissue concentrations of Formula I and its metabolites in Göttingen pigs after a single oral or intravenous dose (LC-MS/MS); format: in vivo; conditions: both sexes, Göttingen, pig (minipig); kidney; single intravenous bolus of Formula I 25 mg/kg; 2 hpd; read-out: Tissue concentration, kidney
Please reply with the bare figure in ng/g and do not write the unit itself.

Some compounds with known concentration at 2 h results, for comparison:
C[C@@]1(O)[C@H](O)[C@@H](CO)O[C@H]1n1ccc(=O)[nH]c1=S: 25400
CC1(O)[C@@H](O)[C@@H](COP(=O)(O)OP(=O)(O)OP(=O)(O)O)O[C@H]1n1ccc(=O)[nH]c1=S (stereo partly drawn): 4410

What does the record list as concentration at 2 h for C[C@H](NP(=O)(O)OC[C@H]1O[C@@H](n2ccc(=O)[nH]c2=S)C(C)(O)C1O)C(=O)O (stereo in doubt) ? 6920

---

Each entry below carries its reported concentration at 12 h.
experiment: Tissue concentrations of Formula I and its metabolites in Göttingen pigs after a single oral or intravenous dose (LC-MS/MS); format: in vivo; details: both sexes, Göttingen, pig (minipig); spleen; single oral dose of Formula I 125 mg/kg; 12 hpd; read-out: Tissue concentration, spleen
Please reply with the bare figure in ng/g and do not write the unit itself.

C[C@@]1(O)[C@H](O)[C@@H](CO)O[C@H]1n1ccc(=O)[nH]c1=S: 539

What does the record list as concentration at 12 h for C[C@H](NP(=O)(O)OC[C@H]1O[C@@H](n2ccc(=O)[nH]c2=S)C(C)(O)C1O)C(=O)O (stereo in doubt) ? 11.9

---

experiment: Tissue concentrations of Formula I and its metabolites in Göttingen pigs after a single oral or intravenous dose (LC-MS/MS); type: in vivo; conditions: both sexes, Göttingen, pig (minipig); liver; single intravenous bolus of Formula I 25 mg/kg; 12 hpd; read-out: Tissue concentration, liver
Each entry below carries its reported concentration at 12 h.
Please reply with the bare figure in ng/g and do not write the unit itself.

CC1(O)[C@@H](O)[C@@H](COP(=O)(O)OP(=O)(O)OP(=O)(O)O)O[C@H]1n1ccc(=O)[nH]c1=S (stereo partly shown) [Formula V]: 62.8
C[C@@]1(O)[C@H](O)[C@@H](CO)O[C@H]1n1ccc(=O)[nH]c1=S [Formula VI]: 201
CC1(O)[C@@H](O)[C@@H](COP(=O)(O)O)O[C@H]1n1ccc(=O)[nH]c1=S (stereo partly shown) [Formula III]: 62.7

Below: the item to evaluate.
What does the record list as concentration at 12 h for C[C@H](NP(=O)(O)OC[C@H]1O[C@@H](n2ccc(=O)[nH]c2=S)C(C)(O)C1O)C(=O)O (stereo in doubt) [Formula II] ? 17.9

---

Assay: Tissue concentrations of Formula I and its metabolites in Göttingen pigs after a single oral or intravenous dose (LC-MS/MS)
Assay type: in vivo
Details: both sexes, Göttingen, pig (minipig); lung; single oral dose of Formula I 125 mg/kg; 12 hpd; read-out: Tissue concentration, lung
Procedure: Tissue samples were collected at 3, 12, and 24 hours post-dose (hpd) for the oral dose and 2 and 12 hpd for the intravenous dose, snap-frozen in liquid nitrogen, and stored at −60 to −90° C. until shipment on dry ice for analysis by LC-MS/MS. Animals were weighed the day prior to dosing to determine the dosing volume. The compound of Formula I was dissolved in a PEG 400/DI water (60%/40% v/v) vehicle for oral dosing. […] The exact weight (in milligrams) of each sample was recorded. […]
measured.attribute: concentration at 12 h

CC1(O)[C@@H](O)[C@@H](COP(=O)(O)O)O[C@H]1n1ccc(=O)[nH]c1=S (stereo partly drawn): 55.2 ng/g
C[C@H](NP(=O)(O)OC[C@H]1O[C@@H](n2ccc(=O)[nH]c2=S)C(C)(O)C1O)C(=O)O (stereo in doubt): 16.5 ng/g

What does the record list as concentration at 12 h for "C[C@@]1(O)[C@H](O)[C@@H](CO)O[C@H]1n1ccc(=O)[nH]c1=S" ? 536 ng/g

---

test: Tissue concentrations of Formula I and its metabolites in Göttingen pigs after a single oral or intravenous dose (LC-MS/MS); type: in vivo; details: both sexes, Göttingen, pig (minipig); spleen; single oral dose of Formula I 125 mg/kg; 3 hpd; read-out: Tissue concentration, spleen
Each entry below carries its reported concentration at 3 h.
Please reply with the bare figure in ng/g and do not write the unit itself.

Some compounds with known concentration at 3 h results, for comparison:
C[C@@]1(O)[C@H](O)[C@@H](CO)O[C@H]1n1ccc(=O)[nH]c1=S: 3010
CC1(O)[C@@H](O)[C@@H](COP(=O)(O)O)O[C@H]1n1ccc(=O)[nH]c1=S (stereo partly drawn): 118

Below: the item to evaluate.
What does the record list as concentration at 3 h for C[C@H](NP(=O)(O)OC[C@H]1O[C@@H](n2ccc(=O)[nH]c2=S)C(C)(O)C1O)C(=O)O (stereo in doubt) ? 1390

---

test: Tissue concentrations of Formula I and its metabolites in Göttingen pigs after a single oral or intravenous dose (LC-MS/MS); format: in vivo; settings: heart; single intravenous bolus of Formula I 25 mg/kg; 12 hpd
measured.attribute: Tissue concentration, heart (ng/g)
Please reply with the bare figure in ng/g and do not write the unit itself.

CC1(O)[C@@H](O)[C@@H](COP(=O)(O)OP(=O)(O)OP(=O)(O)O)O[C@H]1n1ccc(=O)[nH]c1=S (stereo partly shown): 140
C[C@H](NP(=O)(O)OC[C@H]1O[C@@H](n2ccc(=O)[nH]c2=S)C(C)(O)C1O)C(=O)O (stereo in doubt): 7.85

Below: the item to evaluate.
What does the record list as Tissue concentration, heart for CC(C)OC(=O)[C@H](C)N[P@](=O)(OC[C@H]1O[C@@H](n2ccc(=O)[nH]c2=S)C(C)(O)C1O)Oc1ccccc1 (stereo partly shown) ? 2.95

---

Each entry below carries its reported Tissue concentration, liver.
assay: Tissue concentrations of Formula I and its metabolites in Göttingen pigs after a single oral or intravenous dose (LC-MS/MS); format: in vivo; conditions: liver; single oral dose of Formula I 125 mg/kg; 24 hpd
Please reply with the bare figure in ng/g and do not write the unit itself.

C[C@H](NP(=O)(O)OC[C@H]1O[C@@H](n2ccc(=O)[nH]c2=S)C(C)(O)C1O)C(=O)O (stereo in doubt) [Formula II]: 45.6

Below: the item to evaluate.
What does the record list as Tissue concentration, liver for CC1(O)[C@@H](O)[C@@H](COP(=O)(O)O)O[C@H]1n1ccc(=O)[nH]c1=S (stereo partly shown) [Formula III] ? 190

---

assay: Tissue concentrations of Formula I and its metabolites in Göttingen pigs after a single oral or intravenous dose (LC-MS/MS); type: in vivo; conditions: both sexes, Göttingen, pig (minipig), lung, 25 mg/kg; lungs; 12 hrs post-dose after IV dosing with Formula I; read-out: Concentration maintained in lungs
measured.attribute: concentration at 12 h

What does the record list as concentration at 12 h for CC1(O)[C@@H](O)[C@@H](COP(=O)(O)OP(=O)(O)OP(=O)(O)O)O[C@H]1n1ccc(=O)[nH]c1=S (stereo partly shown) ? ~1000 nM

---

assay: Tissue concentrations of Formula I and its metabolites in Göttingen pigs after a single oral or intravenous dose (LC-MS/MS); type: in vivo; settings: brain; single intravenous bolus of Formula I 25 mg/kg; 2 hpd
measured.attribute: Tissue concentration, brain

CC(C)OC(=O)[C@H](C)N[P@](=O)(OC[C@H]1O[C@@H](n2ccc(=O)[nH]c2=S)C(C)(O)C1O)Oc1ccccc1 (stereo partly shown): BQL
C[C@H](NP(=O)(O)OC[C@H]1O[C@@H](n2ccc(=O)[nH]c2=S)C(C)(O)C1O)C(=O)O (stereo in doubt): 4.90 ± 9.80 ng/g
CC1(O)[C@@H](O)[C@@H](COP(=O)(O)OP(=O)(O)OP(=O)(O)O)O[C@H]1n1ccc(=O)[nH]c1=S (stereo partly shown): BQL
CC1(O)[C@@H](O)[C@@H](COP(=O)(O)O)O[C@H]1n1ccc(=O)[nH]c1=S (stereo partly shown): BQL
